Experiment: Cytotoxicity against NHDF cells assessed as reduction in cell viability measured after 24 hrs by MTT assay
Assay type: toxicity, cell-based
Details: human, read-out: LD50
Where a SMILES comes first, the peptide text is derived from it. Bridges are numbered along the chain shown (N, C = ends). [ ]: non-standard residue; d: D form. The star is where a group is joined. X1 = CC[C@H](C)CCCCC(=O)*; Dab = NCC[C@H](N)C(=O)O
Attribute: CC50 at 24 h
Property: CC50 at 24 h

INSERT INTO results (molecule, property, val) VALUES
  ('N=C(N)NCCC[C@H]1C(=O)N(Cc2ccccc2)[C@@H](CCCNC(=N)N)C(=O)N1Cc1ccccc1', 'CC50 at 24 h', '> 512 µM'),
  ('CC1(C)S[C@@H]2[C@H](NC(=O)[C@H](N)c3ccc(O)cc3)C(=O)N2[C@H]1C(=O)O', 'CC50 at 24 h', '> 512 µM'),
  ('CC[C@H](C)CCCCC(=O)N[C@@H](CCN)C(=O)N[C@H](C(=O)N[C@@H](CCN)C(=O)N[C@H]1CCNC(=O)[C@H]([C@@H](C)O)NC(=O)[C@H](CCN)NC(=O)[C@H](CCN)NC(=O)[C@H](CC(C)C)NC(=O)[C@@H](Cc2ccccc2)NC(=O)[C@H](CCN)NC1=O)[C@@H](C)O (X1-[Dab]T[Dab][Dab][Dab][dF]L[Dab][Dab]T; lactam 4-C)', 'CC50 at 24 h', '> 512 µM');
